Biological target: T1, Cyk3, Q07533
T1 sequence (Q07533 1-83, looked up): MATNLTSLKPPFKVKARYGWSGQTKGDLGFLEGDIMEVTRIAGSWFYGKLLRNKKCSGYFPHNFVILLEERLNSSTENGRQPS
Experiment: SPOT array
Conditions: median of control spots 1451
quantity_kind: SPOT intensity
Note: the reply should be a number with no unit written.

Completed entries (count: 5):
{"columns": ["binder", "SPOT intensity"],
 "data": [
  ["QLMKNLPKIPLLNDI", 0],
  ["MFLISPPASPPPEFD", 1],
  ["KMSRSPPRPPSLKII", 0],
  ["PSPSSSPPPIPKTAN", 0],
  ["RSKRLFPVRPMATAH", 0]
]}

IN: Reported SPOT intensity, binder PVLPPPRSPNRPTLS : ____
OUT: 0

IN: # repeat for RRRDFGAPANKRPRR
OUT: 3

IN: # repeat for RSRRSSFAYPQQVAI
OUT: 0

Measured values drawn from paper PMC2756588 for this set.
